The entries below come with measured pIC50 values attached.
molecular target: Androgen Receptor (AR) (Homo sapiens, UniProt P10275, T878A); construct: cell based immuno-fluorescence assay using the LNCaP prostate epithelial cell line; assay: LNCaP Androgen Receptor Down-Regulation Cell Assay; details: LNCaP prostate carcinoma cell line; 20-22 hours incubation; immunofluorescence; 50% reduction of the AR signal
Sequence (P10275 whole entry T878A): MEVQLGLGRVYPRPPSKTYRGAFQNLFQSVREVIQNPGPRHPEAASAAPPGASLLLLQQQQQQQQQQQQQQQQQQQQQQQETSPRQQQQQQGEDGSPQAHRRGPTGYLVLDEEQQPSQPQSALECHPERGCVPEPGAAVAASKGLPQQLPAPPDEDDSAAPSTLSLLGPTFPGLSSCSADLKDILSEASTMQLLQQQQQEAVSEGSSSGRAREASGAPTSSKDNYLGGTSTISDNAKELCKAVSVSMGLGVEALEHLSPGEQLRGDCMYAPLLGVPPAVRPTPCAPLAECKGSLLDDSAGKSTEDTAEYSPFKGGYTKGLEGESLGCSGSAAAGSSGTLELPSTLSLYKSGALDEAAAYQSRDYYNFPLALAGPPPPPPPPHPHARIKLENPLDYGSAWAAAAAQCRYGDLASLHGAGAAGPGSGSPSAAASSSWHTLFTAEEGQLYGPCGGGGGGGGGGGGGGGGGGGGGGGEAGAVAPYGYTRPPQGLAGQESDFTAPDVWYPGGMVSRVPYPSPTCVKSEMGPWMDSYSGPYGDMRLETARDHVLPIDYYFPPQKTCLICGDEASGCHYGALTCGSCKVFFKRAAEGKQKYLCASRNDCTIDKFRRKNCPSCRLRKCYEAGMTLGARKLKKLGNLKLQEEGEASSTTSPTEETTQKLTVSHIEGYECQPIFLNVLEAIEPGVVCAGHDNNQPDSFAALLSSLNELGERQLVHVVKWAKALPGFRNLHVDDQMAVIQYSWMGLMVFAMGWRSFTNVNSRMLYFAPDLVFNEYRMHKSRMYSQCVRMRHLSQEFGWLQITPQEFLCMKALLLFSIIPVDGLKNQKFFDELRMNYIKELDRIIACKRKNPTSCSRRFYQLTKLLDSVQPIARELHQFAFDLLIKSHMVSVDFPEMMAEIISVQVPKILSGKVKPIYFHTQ
Note on pIC50: it is the negative log10 of concentration, concentration in mol/L.

The cases that follow already have their pIC50 on record.
O=C1CN(CCOc2ccc(C3CCN(c4ccc5nnc(C(F)(F)F)n5n4)CC3)cc2)CCN1C1CC1    6.29
CN1CCN(CCOc2ccc(C3CCN(c4ccc5nnc(C(F)(F)F)n5n4)CC3)cc2F)CC1=O    6.51
CC(=O)N1CCN(CCOc2ccc(C3(O)CCN(c4ccc5nnc(C(F)(F)F)n5n4)CC3)cc2)C[C@@H]1C    7.20
COCC(=O)N1CCN(CCOc2ccc(C3CCN(c4ccc5nnc(C(F)(F)F)n5n4)CC3)cc2)CC1    5.82
O=C1CN(CCCOc2ccc(C3CCN(c4ccc5nnc(C(F)(F)F)n5n4)CC3)cc2)CCN1C1CC1    6.39

Kindly review the next compound as well.
So what's the measured pIC50 for this one? C[C@H](O)C(=O)N1CCN(CCOc2ccc(C3CCN(c4ccc5nnc(C(F)(F)F)n5n4)CC3)cc2)CC1
6.05
